- systemTested: T1, human hippocampal Y2 receptor (clone CG-13) (human, UniProt P49146 1-381)
- T1 construct: 381 amino acids; also called CG-13 receptor; human Y2
- T1 sequence: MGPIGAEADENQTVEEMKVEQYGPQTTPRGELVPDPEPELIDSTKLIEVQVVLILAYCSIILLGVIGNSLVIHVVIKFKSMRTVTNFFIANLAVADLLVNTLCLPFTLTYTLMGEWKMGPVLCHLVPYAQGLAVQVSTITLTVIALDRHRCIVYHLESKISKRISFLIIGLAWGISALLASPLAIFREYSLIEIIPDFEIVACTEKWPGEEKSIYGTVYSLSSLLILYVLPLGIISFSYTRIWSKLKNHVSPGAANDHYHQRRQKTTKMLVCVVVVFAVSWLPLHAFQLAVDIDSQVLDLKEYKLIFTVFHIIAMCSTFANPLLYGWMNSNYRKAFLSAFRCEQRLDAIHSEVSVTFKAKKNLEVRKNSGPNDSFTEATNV
- assayMethodText: 125I-PYY displacement, COS-7 membranes, Ki from IC50
Where no end group is shown, it is not given here.
Measured Ki by item

Some solved cases for reference:
binder | val
HYINLITRQRY-NH2 (peptide, UniProt P01304 35-45, looked up, range 26-36; also called NPY26-36, porcine) [porcine NPY26-36] | 380 nM
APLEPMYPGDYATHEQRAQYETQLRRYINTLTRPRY-NH2 (peptide, UniProt P06303 30-65, looked up, mature; also called rat PP) [PP, rat] | > 1000 nM

Here is another binder to look at.
Would you mind telling me what Ki value was observed for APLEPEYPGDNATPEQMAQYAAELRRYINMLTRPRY-NH2 (peptide, UniProt P01302 30-65, looked up, mature; also called bovine PP) [PP, bovine] ?
> 825 nM
